MIC for assorted compounds
- Test system: Trichophyton interdigitale CCM 8377, ATCC 9533
- experimental_details: Antifungal microdilution broth MIC, TI
- recorded_conditions: Trichophyton interdigitale, 120 h, read-out: MIC TI 120h

Solved cases (2 shown):
O=C(Cc1ccccc1)Nc1cccc(Cl)n1 [Compound 3]
250 µM
O=C(Cc1ccc(C(F)(F)F)cc1)Nc1ccccn1 [Compound 28]
> 500 µM

# ---- query compound ----
Task item: Entry under review: O=C(Cc1ccc(F)cc1)Nc1cccc(Cl)n1 [Compound 33] . Reported MIC?
Reply: > 500 µM

----------
- Test system: Staphylococcus epidermidis CCM 4418, ATCC 12228
- experimental_details: Antibacterial microdilution broth MIC, SE
- Format: cell-based
- recorded_conditions: 24 h, read-out: MIC SE 24h
MIC for assorted compounds

Task item: Lab request: please report MIC under test system Staphylococcus epidermidis CCM 4418, ATCC 12228 for O=C(Cc1cccc(C(F)(F)F)c1)Nc1ccccn1 [Compound 25]
Reply: > 500 µM

----------
- System: Staphylococcus epidermidis CCM 4418, ATCC 12228
- experimental_details: Antibacterial microdilution broth MIC, SE
- Type: cell-based
- recorded_conditions: 24 h, read-out: MIC SE 24h
MIC for assorted molecules

O=C(Cc1cccc(Cl)c1)Nc1ccccn1
125 µM

Task item: Entry under review: O=C(Cc1cccc(Cl)c1)Nc1cccc(Cl)n1 . Reported MIC?
Reply: > 500 µM

Task item: Entry under review: O=C(Cc1ccccc1)Nc1ccc(Cl)cn1 . Reported MIC?
Reply: > 500 µM

Task item: Entry under review: COc1ccccc1CC(=O)Nc1ccc(Cl)cn1 . Reported MIC?
Reply: > 500 µM

Task item: Entry under review: O=C(Cc1ccccc1Cl)Nc1ccc(Cl)cn1 . Reported MIC?
Reply: > 500 µM

Task item: Entry under review: O=C(Cc1cccc(Cl)c1)Nc1ccc(Cl)cn1 . Reported MIC?
Reply: > 500 µM

----------
- Test system: Staphylococcus epidermidis CCM 4418, ATCC 12228
- experimental_details: Antibacterial microdilution broth MIC, SE
- Assay type: cell-based
- recorded_conditions: 24 h, read-out: MIC SE 24h
measurement_kind: MIC (µM)
Write down the numeric answer in µM and omit the unit.

Solved cases (3 shown):
O=C(Cc1ccc(Cl)cc1)Nc1ccccn1 [Compound 19]
125
COc1cccc(CC(=O)Nc2ccc(Cl)cn2)c1 [Compound 8]
250
COc1ccc(CC(=O)Nc2ccccn2)cc1 [Compound 10]
500

# ---- query compound ----
Task item: Lab request: please report MIC under test system Staphylococcus epidermidis CCM 4418, ATCC 12228 for O=C(Cc1ccc(F)cc1)Nc1ccccn1 [Compound 31]
Reply: 250
